# System: Wolbachia pipientis
# assay_protocol: Anti-Wolbachia Cell-Based Screen
# Assay type: functional
# Parameters: scale not given: in the data most compounds retested in dose-response had high values
# condition_info: 5 µM
Among all 48,000 compounds or so, about 13,000 (27%) showed an effect of 50% or more. The list shows a part of the results.
Define the label as Y when Percent Effect is strictly less than 20% and as N in all remaining cases.

Examples with answers:
**Q:** Problem: For the molecule Cc1ccc(CN2CC[C@H]3OCC[C@@H](C(=O)NCC4CC4)[C@@H]3C2)o1 , is Percent Effect under 20%?
**A:** Y

**Q:** Problem: For the molecule O=C(c1cccc2c1OCCO2)N1CCCCC1Cn1cccn1 (stereo not given) , is Percent Effect under 20%?
**A:** Y

**Q:** Problem: For the molecule COc1ccc2[nH]cc(C(=O)N3C[C@@H](O)[C@H](N4CCOCC4)C3)c2c1 , is Percent Effect under 20%?
**A:** N

***
**Q:** Problem: For the molecule Cc1ccc(CN2C[C@H]3C[C@H](C(=O)NCc4cccnc4)[C@@H](C2)O3)o1 , is Percent Effect under 20%?
**A:** Y

**Q:** Problem: For the molecule CCN(CC)C(=O)CNC(=O)c1c[nH]c2ccc(OC)cc12 , is Percent Effect under 20%?
**A:** Y

**Q:** Problem: For the molecule CC(C)N1[C@@H](C(=O)NCC2CC2)C[C@@H]2CN(Cc3ccco3)C[C@@H]21 , is Percent Effect under 20%?
**A:** N

**Q:** Problem: For the molecule O=C(c1cc2c(s1)CCOC2)N1CCCC1Cn1cccn1 (stereo not given) , is Percent Effect under 20%?
**A:** N
